Values compiled from patent US20230331824A1.

- measured_on: T1, recombinant SARS-CoV-2 spike S2-His (SARS-CoV-2, UniProt P0DTC2 686-1213)
- T1 construct: domain: S2
- procedure_text: pull-down on immobilized S2, band quantified
parameter_measured: binding result

| binder | parameter_measured | measured_result |
| --- | --- | --- |
| S2-49 (VHH, also called S2 Nanobody # 49) VHH: DVQLVESGGGLVQPGGSLRLSCAVSGLTLPYFTISWFRQAPGKEREWVSSSRITGNTYYADSVKGRFTVSRDNAKSTVYLQMNRLKAEDTATYYCASGRNINYYTNSAEYNYWGRGTQVTVS | binding result | binds |
| S2-20 (VHH, also called S2 Nanobody # 20) VHH: QVQLVESGGGLVQPGGSLRLSCAASGFTLTYYTISWFRQAPGKEREWVSSSRISGNTYYTDSVKGRFTISRDNAKSVVYLQMNSLKPEDTATYYCASGRNIPYDTYTNPTKYDYWGRGTQVTVS | binding result | binds |
